Target: recombinant 5-LOX (Homo sapiens, UniProt P09917)
Sequence (P09917 1-674): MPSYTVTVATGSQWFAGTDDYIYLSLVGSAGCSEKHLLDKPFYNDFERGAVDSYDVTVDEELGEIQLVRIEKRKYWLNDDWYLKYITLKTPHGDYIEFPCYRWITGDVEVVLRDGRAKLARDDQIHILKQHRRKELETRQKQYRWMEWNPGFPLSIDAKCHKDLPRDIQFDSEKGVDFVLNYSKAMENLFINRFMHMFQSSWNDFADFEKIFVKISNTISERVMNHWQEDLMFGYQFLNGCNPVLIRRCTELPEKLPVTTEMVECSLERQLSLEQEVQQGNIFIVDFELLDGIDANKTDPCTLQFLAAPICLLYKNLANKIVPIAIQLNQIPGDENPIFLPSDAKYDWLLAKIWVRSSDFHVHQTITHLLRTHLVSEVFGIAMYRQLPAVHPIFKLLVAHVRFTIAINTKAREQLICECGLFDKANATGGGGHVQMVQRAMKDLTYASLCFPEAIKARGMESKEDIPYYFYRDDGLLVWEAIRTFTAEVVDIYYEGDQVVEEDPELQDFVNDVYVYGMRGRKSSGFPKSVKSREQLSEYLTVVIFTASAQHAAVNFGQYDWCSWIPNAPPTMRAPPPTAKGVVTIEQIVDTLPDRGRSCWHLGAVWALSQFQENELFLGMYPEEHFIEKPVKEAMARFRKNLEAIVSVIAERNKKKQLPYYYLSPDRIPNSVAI
Assay: 5-LOX fluorescent assay
Format: biochemical
Settings: several values in one cell = repeat determinations; read-out: IC50 (μM) values for in vitro lipoxygenase inhibition, 5-LOX
readoutType: IC50 (µM)

[
  {
    "molecule": "CC1(C)CN(CCn2cncn2)c2cc3[nH]c4ccccc4c3cc21 [SS20308-0209-01]",
    "unitInfo": "µM",
    "reportedResult": 0.92
  },
  {
    "molecule": "CN(CCn1cncn1)c1cc2c(cc1-c1ccccc1)[nH]c1ccc(F)cc12 [SS20308-0182-01]",
    "unitInfo": "µM",
    "reportedResult": 0.77
  },
  {
    "molecule": "CN(C)CCOc1c(NCc2ccccc2)ccc2c1[nH]c1ccc(F)cc12 [SS20308-0036-01]",
    "unitInfo": "µM",
    "reportedResult": 0.35
  },
  {
    "molecule": "CN(C)CCOc1cccc2c1-c1[nH]c3ccccc3c1CS2 [SS20308-0046-01]",
    "unitInfo": "µM",
    "reportedResult": 0.63
  },
  {
    "molecule": "c1ccc2c(c1)CCc1ccc(NCCCN3CCOCC3)cc1N2 [SS20308-0303-01]",
    "unitInfo": "µM",
    "reportedResult": 0.12
  }
]

1. Fc1ccc2[nH]c3c(OCCn4cncn4)cc(Oc4ccccc4)cc3c2c1 [SS20308-0084-01]
2. Cc1cc2[nH]c3ccc(F)cc3c2cc1NCC1(Cn2cncn2)COC1 [SS20308-0233-01]
Which shows the larger IC50 value: 1 or 2 ? I would appreciate it if you answered with the label of your choice. 1

----------
Target: recombinant 5-LOX (Homo sapiens, UniProt P09917)
Sequence (P09917 1-674): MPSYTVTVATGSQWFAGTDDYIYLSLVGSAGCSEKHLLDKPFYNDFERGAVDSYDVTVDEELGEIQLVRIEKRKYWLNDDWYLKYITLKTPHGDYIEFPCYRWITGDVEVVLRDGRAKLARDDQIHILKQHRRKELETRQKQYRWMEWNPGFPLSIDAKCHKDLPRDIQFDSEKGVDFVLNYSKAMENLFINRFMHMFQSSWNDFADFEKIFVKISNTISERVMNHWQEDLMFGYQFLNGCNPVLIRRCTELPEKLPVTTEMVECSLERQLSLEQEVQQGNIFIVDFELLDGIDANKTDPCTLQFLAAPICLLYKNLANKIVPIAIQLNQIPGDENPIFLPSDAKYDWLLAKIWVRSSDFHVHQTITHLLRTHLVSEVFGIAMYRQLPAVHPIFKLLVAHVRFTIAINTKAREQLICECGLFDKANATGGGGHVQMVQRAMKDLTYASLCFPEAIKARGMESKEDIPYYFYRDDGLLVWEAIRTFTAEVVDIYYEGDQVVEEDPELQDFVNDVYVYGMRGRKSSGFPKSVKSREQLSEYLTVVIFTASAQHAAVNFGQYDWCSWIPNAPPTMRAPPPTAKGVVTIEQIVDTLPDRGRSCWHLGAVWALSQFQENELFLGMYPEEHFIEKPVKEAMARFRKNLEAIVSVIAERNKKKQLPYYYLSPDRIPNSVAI
Experiment: 5-LOX fluorescent assay
Type: biochemical
Conditions: several values in one cell = repeat determinations; read-out: IC50 (μM) values for in vitro lipoxygenase inhibition, 5-LOX
readoutType: IC50 (µM)

A. Clc1c(NCCn2cncn2)ccc2c1Nc1ccccc1CC2
B. CN(C)C(=O)CC(c1ccccc1)c1ccc2[nH]c3ccccc3c2c1 (centres unmarked)
C. CN(C)CCOc1c(-c2ccccc2[N+](=O)[O-])ccc2c1[nH]c1ccccc12
D. CN(C)CCOc1c(CNc2ccccc2)ccc2c1[nH]c1ccccc12
Arrange the 4 entries by IC50 so the values rise. // format: requested-order list of labels D, C, A, B
(D: 0.62 µM, C: 2.66 µM, A: 5.6 µM, B: 10.9 µM)

The values you see were collected from patent US20230174485A1.
